Data provenance is paper PMC7801115.

ASSAY PROCEDURE: Plasma protein binding, equilibrium dialysis
Type: in vitro ADME
SETTINGS: mouse plasma, recovery in PPB experiment (value in brackets)
recovery at 4 h, 5 µM overview
Your answer should be a plain number; it is taken to be in %.

Consider the reported recovery at 4 h, 5 µM for these molecules:
Exercise: Query: recovery at 4 h, 5 µM; subject: Cl.c1ccc2nc(-c3nc4ccc(C5=NCCCN5)cc4s3)ccc2c1 [Compound 5d]
Key: 82

Exercise: Can you handle Cl.N#Cc1ccc(-c2nc3ccc(C4=NCCCN4)cc3s2)cc1 [Compound 5b] next?
Key: 98

Exercise: Can you handle c1ccc2sc(-c3nc4cc(C5=NCCCN5)ccc4[nH]3)cc2c1 [Compound 6d] next?
Key: 89

Exercise: Can you handle c1ccc2c(-c3nc4ccc(C5=NCCCN5)cc4[nH]3)c[nH]c2c1 [Compound 6e] next?
Key: 91

Exercise: Can you handle N#Cc1ccc(-c2nc3cc(C4=NCCCN4)ccc3[nH]2)cc1 [Compound 6b] next?
Key: 87

***
Exercise: Query: recovery at 4 h, 5 µM; subject: Cl.FC(F)(F)c1ccc(-c2nc3ccc(C4=NCCCN4)cc3s2)cc1 [Compound 5c]
Key: 86

Exercise: Can you handle Cl.c1ccc2sc(-c3nc4ccc(C5=NCCCN5)cc4s3)nc2c1 [Compound 5g] next?
Key: 85

###

ASSAY PROCEDURE: Plasma protein binding, equilibrium dialysis
Format: in vitro ADME
SETTINGS: human plasma, recovery in PPB experiment (value in brackets)
Procedure: The extent of binding to plasma proteins was assessed using equilibrium dialysis method. […] All ADME samples were analysed on a Sciex API 4000 or Sciex API4500 Triple Quadrupole Mass Spectrometer (Sciex, Framingham, MA, USA) coupled to a UHPLC System (Shimadzu Nexera X2; Shimadzu, Kyoto, Japan). […]
PARAMETER: recovery at 4 h, 5 µM
Please make sure the unit comes right after the number.

Exercise: Query: recovery at 4 h, 5 µM; subject: Cl.c1ccc2cc(-c3nc4ccc(C5=NCCCN5)cc4s3)ccc2c1
Key: 80%

***
Exercise: Query: recovery at 4 h, 5 µM; subject: Cl.N#Cc1ccc(-c2nc3ccc(C4=NCCCN4)cc3s2)cc1
Key: 93%

Exercise: Can you handle c1ccc2cc(-c3nc4cc(C5=NCCCN5)ccc4[nH]3)ccc2c1 next?
Key: 91%

Exercise: Can you handle c1ccc2c(c1)cc(-c1nc3cc(C4=NCCCN4)ccc3[nH]1)c1ccccc12 next?
Key: 96%

###

ASSAY PROCEDURE: Chromatographic lipophilicity study (Chrom logD7.4)
Type: physicochemical
SETTINGS: gradient reverse-phase HPLC (Phenomenex Luna C18 column); pH 7.4, gradient reverse-phase HPLC, from CHI7.4
PARAMETER: chromatographic logD
Keep it simple and answer with nothing but the number.

Consider the reported chromatographic logD for these compounds:
Exercise: Query: chromatographic logD; subject: c1ccc2sc(-c3nc4cc(C5=NCCCN5)ccc4[nH]3)cc2c1
Key: 2.43

Exercise: Can you handle c1ccc2c(c1)cc(-c1nc3cc(C4=NCCCN4)ccc3[nH]1)c1ccccc12 next?
Key: 3.27

Exercise: Can you handle FC(F)(F)c1ccc(-c2nc3cc(C4=NCCCN4)ccc3[nH]2)cc1 next?
Key: 2.6

Exercise: Can you handle Cl.c1ccc2sc(-c3nc4ccc(C5=NCCCN5)cc4s3)cc2c1 next?
Key: 3.19

Exercise: Can you handle Cl.N#Cc1ccc(-c2nc3ccc(C4=NCCCN4)cc3s2)cc1 next?
Key: 2.18

***
Exercise: Query: chromatographic logD; subject: Cl.FC(F)(F)c1ccc(-c2nc3ccc(C4=NCCCN4)cc3s2)cc1
Key: 3.31

Exercise: Can you handle c1ccc2cc(-c3nc4cc(C5=NCCCN5)ccc4[nH]3)ccc2c1 next?
Key: 2.18

Exercise: Can you handle Cl.c1ccc2nc(-c3nc4ccc(C5=NCCCN5)cc4s3)ccc2c1 next?
Key: 2.87

Exercise: Can you handle Cl.c1ccc2cc(-c3nc4ccc(C5=NCCCN5)cc4s3)ccc2c1 next?
Key: 3.31

Exercise: Can you handle Cl.c1ccc2sc(-c3nc4ccc(C5=NCCCN5)cc4s3)nc2c1 next?
Key: 2.71

Exercise: Can you handle c1ccc2c(-c3nc4ccc(C5=NCCCN5)cc4[nH]3)c[nH]c2c1 next?
Key: 1.38

Exercise: Can you handle N#Cc1ccc(-c2nc3cc(C4=NCCCN4)ccc3[nH]2)cc1 next?
Key: 1.17

Exercise: Can you handle c1ccc(-c2nc3cc(C4=NCCCN4)ccc3[nH]2)cc1 next?
Key: 0.92

###

ASSAY PROCEDURE: Plasma protein binding, equilibrium dialysis
Type: in vitro ADME
SETTINGS: human plasma, recovery in PPB experiment (value in brackets)
PARAMETER: recovery at 4 h, 5 µM (%)
Your answer should be a plain number; it is taken to be in %.

Exercise: Query: recovery at 4 h, 5 µM; subject: Cl.c1ccc2nc(-c3nc4ccc(C5=NCCCN5)cc4s3)ccc2c1
Key: 76

***
Exercise: Query: recovery at 4 h, 5 µM; subject: c1ccc2c(-c3nc4ccc(C5=NCCCN5)cc4[nH]3)c[nH]c2c1
Key: 81

Exercise: Can you handle Cl.c1ccc2sc(-c3nc4ccc(C5=NCCCN5)cc4s3)cc2c1 next?
Key: 79

Exercise: Can you handle FC(F)(F)c1ccc(-c2nc3cc(C4=NCCCN4)ccc3[nH]2)cc1 next?
Key: 97

###

Where a name gives a salt, the structure may show the parent alone.
melting point overview

Consider the reported melting point for these molecules:
Exercise: Query: melting point; subject: Cl.N#Cc1ccc(-c2nc3ccc(C4=NCCCN4)cc3s2)cc1 [Compound 5b]
Key: > 300 °C

Exercise: Can you handle Cl.c1ccc2cc(-c3nc4ccc(C5=NCCCN5)cc4s3)ccc2c1 [Compound 5h] next?
Key: > 300 °C

Exercise: Can you handle Cl.c1ccc2sc(-c3nc4ccc(C5=NCCCN5)cc4s3)nc2c1 [Compound 5g] next?
Key: > 300 °C

Exercise: Can you handle Cl.c1ccc2c(c1)cc(-c1nc3ccc(C4=NCCCN4)cc3s1)c1ccccc12 [Compound 5i] next?
Key: 196 to 200 °C

Exercise: Can you handle Cl.c1ccc(-c2nc3ccc(C4=NCCCN4)cc3s2)cc1 [Compound 5a] next?
Key: 272 to 275 °C

***
Exercise: Query: melting point; subject: c1ccc2c(-c3nc4ccc(C5=NCCCN5)cc4[nH]3)c[nH]c2c1 (as salt: chloride) [Compound 6e]
Key: > 300 °C

Exercise: Can you handle Cl.c1ccc2nc(-c3nc4ccc(C5=NCCCN5)cc4s3)ccc2c1 [Compound 5d] next?
Key: > 300 °C

Exercise: Can you handle Cl.FC(F)(F)c1ccc(-c2nc3ccc(C4=NCCCN4)cc3s2)cc1 [Compound 5c] next?
Key: 279 to 283 °C

Exercise: Can you handle Cl.c1ccc2sc(-c3nc4ccc(C5=NCCCN5)cc4s3)cc2c1 [Compound 5e] next?
Key: > 300 °C

Exercise: Can you handle Cl.c1ccc2c(-c3nc4ccc(C5=NCCCN5)cc4s3)c[nH]c2c1 [Compound 5f] next?
Key: > 300 °C

###

solubility kinetic at 2 h overview
ASSAY PROCEDURE: Kinetic solubility
Assay type: physicochemical
SETTINGS: aqueous buffer, kinetic from dmso stock, phosphate buffer 50 mM, pH 7.4, 1% DMSO, 37 °C

Consider the reported solubility kinetic at 2 h for these compounds:
Exercise: Query: solubility kinetic at 2 h; subject: Cl.N#Cc1ccc(-c2nc3ccc(C4=NCCCN4)cc3s2)cc1
Key: > 100 µM

Exercise: Can you handle c1ccc2c(-c3nc4ccc(C5=NCCCN5)cc4[nH]3)c[nH]c2c1 next?
Key: 10 to 30 µM

Exercise: Can you handle Cl.c1ccc2nc(-c3nc4ccc(C5=NCCCN5)cc4s3)ccc2c1 next?
Key: 30 to 100 µM

Exercise: Can you handle N#Cc1ccc(-c2nc3cc(C4=NCCCN4)ccc3[nH]2)cc1 next?
Key: > 100 µM

Exercise: Can you handle Cl.c1ccc2cc(-c3nc4ccc(C5=NCCCN5)cc4s3)ccc2c1 next?
Key: 10 to 30 µM

Exercise: Can you handle c1ccc2c(c1)cc(-c1nc3cc(C4=NCCCN4)ccc3[nH]1)c1ccccc12 next?
Key: 30 to 100 µM

Exercise: Can you handle c1ccc(-c2nc3cc(C4=NCCCN4)ccc3[nH]2)cc1 next?
Key: > 100 µM

Exercise: Can you handle Cl.FC(F)(F)c1ccc(-c2nc3ccc(C4=NCCCN4)cc3s2)cc1 next?
Key: > 100 µM

Query compound follows.
Exercise: Query: solubility kinetic at 2 h; subject: Cl.c1ccc2sc(-c3nc4ccc(C5=NCCCN5)cc4s3)nc2c1
Key: 30 to 100 µM
